FYI, the data here is from paper PMC7170889.

Tgt: PKCδ-GFP fusion protein (Homo sapiens)
Construct: expressed in transfected cells; host or cells: CHO-k1 (Chinese hamster ovary, ATCC)
Sequence (Q05655 whole entry, the tested form may be a part): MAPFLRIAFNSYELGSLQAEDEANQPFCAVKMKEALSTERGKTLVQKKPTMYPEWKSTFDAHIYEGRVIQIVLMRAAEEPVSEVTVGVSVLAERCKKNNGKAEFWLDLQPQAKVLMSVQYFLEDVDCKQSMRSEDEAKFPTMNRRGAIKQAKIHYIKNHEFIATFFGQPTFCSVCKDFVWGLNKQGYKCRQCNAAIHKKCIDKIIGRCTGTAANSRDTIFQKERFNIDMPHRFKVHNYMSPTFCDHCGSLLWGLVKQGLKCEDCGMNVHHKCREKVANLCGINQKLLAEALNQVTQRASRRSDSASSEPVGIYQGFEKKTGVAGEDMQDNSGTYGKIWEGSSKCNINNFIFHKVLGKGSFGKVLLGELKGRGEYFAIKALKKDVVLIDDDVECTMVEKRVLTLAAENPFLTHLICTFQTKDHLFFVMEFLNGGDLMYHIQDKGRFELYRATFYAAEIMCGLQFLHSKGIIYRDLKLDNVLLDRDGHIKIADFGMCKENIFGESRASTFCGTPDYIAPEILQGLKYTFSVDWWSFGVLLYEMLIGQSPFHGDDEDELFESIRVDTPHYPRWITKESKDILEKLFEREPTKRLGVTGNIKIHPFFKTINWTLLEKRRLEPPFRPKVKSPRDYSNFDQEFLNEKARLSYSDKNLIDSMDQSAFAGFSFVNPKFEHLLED
Protocol Summary: PKCδ-GFP translocation assay in living CHO-k1 cells (confocal microscopy)
Assay type: cell-based, Chinese hamster
Settings: CHO-K1, 200 nM compound; CHO-k1 cells; n = 3; read-out: % Translocation (maximum translocation of PKCδ-GFP to the plasma membrane)

Compound: CCCCCCCC(=O)O[C@H]1/C(=C/C(=O)OC)C[C@H]2C[C@H]([C@@H](C)O)OC(=O)C[C@H](O)C[C@@H]3C[C@H](OC(C)=O)C(C)(C)[C@](O)(C[C@@H]4C[C@@H](C)C[C@H](/C=C/C(C)(C)[C@]1(O)O2)O4)O3
Emax at 0.2 µM (%): 75

Compound: CCCC=CC=CC(=O)OC1C(=CC(=O)OC)CC2CC(C(C)O)OC(=O)CC(O)CC3CC(OC(C)=O)C(C)(C)C(O)(CC4CC(=CC(=O)OCC)CC(C=CC(C)(C)C1(O)O2)O4)O3 (stereo not shown)
Emax at 0.2 µM (%): 75

Compound: CCCC=CC=CC(=O)OC1C(=CC(=O)OC)CC2CC(C(C)O)OC(=O)CC(O)CC3CC(OC(C)=O)C(C)(C)C(O)(CC4CC(OC(=O)Nc5ccccc5)CC(C=CC(C)(C)C1(O)O2)O4)O3 (stereo not shown)
Emax at 0.2 µM (%): 75

Compound: CCCCCC#CC(=O)O[C@H]1/C(=C/C(=O)OC)C[C@H]2C[C@H]([C@@H](C)O)OC(=O)C[C@H](O)C[C@@H]3C[C@H](OC(C)=O)C(C)(C)[C@](O)(C[C@@H]4C[C@H](O)C[C@H](/C=C/C(C)(C)[C@]1(O)O2)O4)O3
Emax at 0.2 µM (%): 25

Compound: CCC/C=C/C=C/C(=O)O[C@H]1/C(=C/C(=O)OC)C[C@H]2C[C@H]([C@@H](C)O)OC(=O)C[C@H](O)C[C@@H]3C[C@H](OC(C)=O)C(C)(C)[C@](O)(C[C@@H]4C[C@H](OC(C)=O)C[C@H](/C=C/C(C)(C)[C@]1(O)O2)O4)O3
Emax at 0.2 µM (%): 60

Compound: C=CCOC(=O)/C=C1/C[C@H]2C[C@]3(O)O[C@H](C[C@@H](O)CC(=O)O[C@@H]([C@@H](C)O)C[C@@H]4C/C(=C\C(=O)OC)[C@H](OC(=O)/C=C/C=C/CCC)[C@@](O)(O4)C(C)(C)/C=C/[C@@H](C1)O2)C[C@H](OC(C)=O)C3(C)C
Emax at 0.2 µM (%): 50

Compound: CCC/C=C/C=C/C(=O)O[C@H]1/C(=C/C(=O)OC)C[C@H]2C[C@H]([C@@H](C)O)OC(=O)C[C@H](O)C[C@@H]3C[C@H](OC(C)=O)C(C)(C)[C@](O)(C[C@@H]4C[C@@H](OC(C)=O)C[C@H](/C=C/C(C)(C)[C@]1(O)O2)O4)O3
Emax at 0.2 µM (%): 60
